assay: 12 h plasma concentration/time profiles from six clinical studies of transplant patients receiving enteric coated mycophenolate salt (Myfortic); format: in vivo, human; details: human, plasma, oral; stable patients; enteric coated mycophenolate salt (Myfortic); read-out: MPA AUC0-12, mean and SD, measured
Measure: AUC(0-t) (ng·h/mL)
Numbers only; they are read as ng·h/mL.

Record COc1c(C)c2c(c(O)c1C/C=C(\C)CCC(=O)O)C(=O)OC2 . Reported AUC(0-t): 65100
